- target system: Arachidonate 5-lipoxygenase-activating protein (Homo sapiens)
- method notes: Inhibition of FLAP in calcimycin-stimulated human whole blood assessed as inhibition of LTB4 synthesis preincubated for 15 mins followed by calcimycin stimulation measured after 30 mins
Consider the following molecules and their measured IC50 readings.
assay endpoint: IC50 (nM)

# test smiles, units of measure, relation, result value
records = [
    ("CN(C)CCn1cc(-c2nc(C3(c4ccc(-c5cnc(N)nc5)cc4)CCC3)no2)cn1", "nM", "=", 47),
    ("Cn1cc(-c2nc([C@](C)(c3ccc(-c4cnc(N)nc4)cc3)C3CC3)no2)cn1", "nM", "=", 350),
    ("Nc1ncc(-c2ccc(C3(c4noc(-c5nc[nH]n5)n4)CCC3)cc2)cn1", "nM", "=", 2700),
    ("Nc1ncc(-c2ccc(C3(c4noc(-c5ccc[nH]c5=O)n4)CCC3)cc2)cn1", "nM", ">", 5000),
    ("Nc1ncc(-c2ccc(C3(c4noc(-c5c[nH]nn5)n4)CCC3)cc2)cn1", "nM", "=", 2100),
    ("Nc1ncc(-c2ccc(C3(c4noc(-c5cocn5)n4)CCC3)cc2)cn1", "nM", "=", 310),
    ("CCNc1nc(C2(c3ccc(-c4cnc(N)nc4)cc3)CCC2)no1", "nM", "=", 460),
    ("Nc1ncc(-c2ccc(C3(c4noc(-c5cn[nH]c5)n4)CCC3)cc2)cn1", "nM", "=", 110),
    ("Nc1ncc(-c2ccc(C3(c4noc(-c5cncnc5)n4)CCC3)cc2)cn1", "nM", "=", 340),
    ("Nc1ncc(-c2ccc(C3(c4noc(-c5cscn5)n4)CCC3)cc2)cn1", "nM", "=", 200),
]

---

- target system: CYP3A4 (Homo sapiens)
- Sequence (P08684 whole entry): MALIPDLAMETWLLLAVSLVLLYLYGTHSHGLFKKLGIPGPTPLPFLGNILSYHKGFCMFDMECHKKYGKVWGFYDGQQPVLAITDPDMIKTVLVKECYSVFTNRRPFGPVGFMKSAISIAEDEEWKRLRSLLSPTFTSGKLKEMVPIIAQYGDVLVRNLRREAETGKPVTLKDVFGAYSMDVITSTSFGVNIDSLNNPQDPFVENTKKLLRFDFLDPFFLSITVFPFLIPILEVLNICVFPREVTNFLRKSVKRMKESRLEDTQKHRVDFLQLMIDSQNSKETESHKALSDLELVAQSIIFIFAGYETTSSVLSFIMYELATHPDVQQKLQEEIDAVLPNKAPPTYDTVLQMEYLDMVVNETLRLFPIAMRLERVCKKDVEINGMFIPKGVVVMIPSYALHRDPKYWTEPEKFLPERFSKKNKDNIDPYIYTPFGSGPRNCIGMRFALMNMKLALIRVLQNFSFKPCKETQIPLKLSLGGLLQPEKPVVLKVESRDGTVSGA
- method notes: Induction of CYP3A4 in human hepatocytes using midazolam as substrate assessed as formation of 1'-hydroxymidazolam up to 30 uM preincubated for 48 hrs followed by substrate addition measured up to 120 mins relative to control
- Type: ADME, cell-based, Hepatocyte
- protocol conditions: probe midazolam, read-out: FC

# test smiles, fold induction at 2 h
rows = [
    ("CN(C)C(=O)Cn1cc(-c2nc([C@@](C)(c3ccc(-c4cnc(N)nc4)cc3)C3CC3)no2)cn1", 2),
]

---

- target system: Cytochrome P450 3A4 (Homo sapiens)
- Sequence (P08684 whole entry): as above

# test smiles, IC50
data = [
    ("CC(C)(O)Cn1cc(-c2nc(C3(c4ccc(-c5cnc(N)nc5)cc4)CCC3)no2)cn1", "> 30 µM"),
]

---

- method notes: Volume of distribution at steady state in rat at 1 mg/kg, iv and 10 mg/kg, po
- Assay type: ADME, organism-based
- protocol conditions: in vivo, read-out: Vdss

# test smiles, Vd
data = [
    ("CN(C)C(=O)Cn1cc(-c2nc([C@@](C)(c3ccc(-c4cnc(N)nc4)cc3)C3CC3)no2)cn1", "0.9 L/kg"),
]

---

- target system: Arachidonate 5-lipoxygenase-activating protein (Homo sapiens, UniProt P20292)
- method notes: Inhibition of FLAP in calcimycin-stimulated human whole blood assessed as inhibition of LTB4 synthesis preincubated for 15 mins followed by calcimycin stimulation measured after 30 mins
Listed below: log10 of IC50 values for each entry.
assay endpoint: log10 of IC50 (log10 of the value in nM)

# test smiles, assay endpoint, result value
rows = [
    ("CC(C)[C@@](C)(c1ccc(-c2cnc(N)nc2)cc1)c1noc(-c2cnn(C)c2)n1", "log10 of IC50", 2.56),
    ("Cn1cc(-c2nc(C3(c4ccc(-c5cnc(N)nc5)cc4)CC(C)(C)C3)no2)cn1", "log10 of IC50", 3.18),
    ("Nc1ncc(-c2ccc(C3(c4noc(-c5ccnnc5)n4)CCC3)cc2)cn1", "log10 of IC50", 2.38),
    ("CC(C)[C@](C)(c1ccc(-c2cnc(N)nc2)cc1)c1noc(-c2cnn(C)c2)n1", "log10 of IC50", 1.52),
    ("CC(C)(O)Cn1cc(-c2nc([C@@](C)(c3ccc(-c4cnc(N)nc4)cc3)C3CC3)no2)cn1", "log10 of IC50", 1.30),
    ("Nc1ncc(-c2ccc(C3(c4noc(-c5cccnc5)n4)CCC3)cc2)cn1", "log10 of IC50", 2.40),
    ("CN(C)C(=O)Cn1cc(-c2nc(C3(c4ccc(-c5cnc(N)nc5)cc4)CCC3)no2)cn1", "log10 of IC50", 1.91),
    ("CN(C)C(=O)Cn1cc(-c2nc([C@@](C)(c3ccc(-c4ccc(N)nc4)cc3)C3CC3)no2)cn1", "log10 of IC50", 1.82),
]

---

- method notes: Volume of distribution at steady state in dog at 1 mg/kg, iv and 10 mg/kg, po
- Format: ADME, organism-based, Canis lupus familiaris
- protocol conditions: in vivo, read-out: Vdss
assay endpoint: Vd

# test smiles, assay endpoint, result value
records = [
    ("CN(C)C(=O)Cn1cc(-c2nc([C@@](C)(c3ccc(-c4cnc(N)nc4)cc3)C3CC3)no2)cn1", "Vd", "1.2 L/kg"),
]

---

- target system: Arachidonate 5-lipoxygenase-activating protein (Homo sapiens)
- method notes: Inhibition of FLAP in calcimycin-stimulated human whole blood assessed as inhibition of LTB4 synthesis preincubated for 15 mins followed by calcimycin stimulation measured after 30 mins
pIC50: −log10 of the molar value.
Catalogue of pIC50 values
assay endpoint: pIC50

# compound, assay endpoint, relation, result value
data = [
    ("NCCn1cc(-c2nc(C3(c4ccc(-c5cnc(N)nc5)cc4)CCC3)no2)cn1", "pIC50", "=", 6.62),
    ("Nc1ncc(-c2ccc(C3(c4noc(-c5cc[nH]n5)n4)CCC3)cc2)cn1", "pIC50", "=", 6.80),
    ("Cn1cc(-c2nc([C@@](C)(c3ccc(-c4cnc(N)nc4)cc3)C3CC3)no2)cn1", "pIC50", "=", 7.82),
    ("Nc1ncc(-c2ccc(C3(c4noc(-c5cccnn5)n4)CCC3)cc2)cn1", "pIC50", "=", 6.40),
    ("CN(C)C(=O)Cn1cc(-c2nc([C@@](C)(c3ccc(-c4cnc(N)cn4)cc3)C3CC3)no2)cn1", "pIC50", "=", 7.14),
    ("CC(C)C(c1ccc(-c2cnc(N)nc2)cc1)c1noc(-c2cnn(C)c2)n1 (racemic)", "pIC50", "=", 6.72),
    ("Cn1cc(-c2nc(C(C)(C)c3ccc(-c4cnc(N)nc4)cc3)no2)cn1", "pIC50", "=", 7.03),
    ("CS(=O)(=O)Nc1nc(C2(c3ccc(-c4cnc(N)nc4)cc3)CCC2)no1", "pIC50", "<", 5.30),
    ("Nc1ncc(-c2ccc(C3(c4noc(-c5cnccn5)n4)CCC3)cc2)cn1", "pIC50", "=", 6.44),
]

---

- target system: Arachidonate 5-lipoxygenase-activating protein (Homo sapiens)
- Sequence (P20292 whole entry): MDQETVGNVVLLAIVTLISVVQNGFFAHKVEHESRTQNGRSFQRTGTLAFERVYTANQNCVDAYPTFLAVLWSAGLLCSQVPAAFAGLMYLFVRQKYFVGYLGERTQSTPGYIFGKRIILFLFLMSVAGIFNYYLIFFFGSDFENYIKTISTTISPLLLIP
- method notes: Inhibition of FLAP in calcimycin-stimulated human whole blood assessed as inhibition of LTB4 synthesis preincubated for 15 mins followed by calcimycin stimulation measured after 30 mins
compounds and their reported IC50

# test smiles, relation, IC50 / nM
data = [
    ("Cn1cc(-c2nc(C3(c4ccc(-c5cnc(N)nc5)cc4)CC3)no2)cn1", "=", 2200),
    ("CC(C)Nc1ncc(-c2ccc([C@](C)(c3noc(-c4cnn(CC(=O)N(C)C)c4)n3)C3CC3)cc2)cn1", ">", 50000),
    ("Nc1ncc(-c2ccc(C3(c4noc(-c5ccccc5)n4)CCC3)cc2)cn1", "=", 470),
    ("CNc1ncc(-c2ccc([C@](C)(c3noc(-c4cnn(CC(=O)N(C)C)c4)n3)C3CC3)cc2)cn1", "=", 30),
]

---

Measured IC50, listed per entry.
- target system: Arachidonate 5-lipoxygenase-activating protein (Homo sapiens)
- method notes: Displacement of [125I]-L-691831 from human FLAP expressed in insect SF9 cell membranes after 2 hrs by Topcount analysis

# test smiles, units of measure, relation, IC50
rows = [
    ("CNc1ncc(-c2ccc([C@](C)(c3noc(-c4cnn(CC(=O)N(C)C)c4)n3)C3CC3)cc2)cn1", "nM", "=", 2.9),
    ("Cn1cc(-c2nc(Cc3ccc(-c4cnc(N)nc4)cc3)no2)cn1", "nM", ">", 1000),
    ("CN(C)C(=O)Cn1cc(-c2nc(C3(c4ccc(-c5cnc(N)nc5)cc4)CCC3)no2)cn1", "nM", "=", 3.6),
]

The reported numbers originate from ChEMBL document CHEMBL3414472.
